Data provenance: patent US5138069A

Reported IC50 values for a set of compounds
target: AII receptor; assay: Angiotensin II receptor binding (displacement of 3H-AII); conditions: read-out: Angiotensin II Receptor Binding IC50; Table 25; rat adrenal cortical microsomes, 2 nM 3H-AII, 1 hour, room temperature
MEASURE NAME: IC50 (nM)

• CCCCc1nc(Cl)c(CO)n1Cc1ccc(-c2ccccc2C(=O)NOCc2ccccc2)cc1 = 4900
• CCCCc1nc(Cl)c(C(N)=O)n1Cc1ccc(-c2ccccc2C(=O)O)cc1 = 150
• CCCCc1nc(Cl)c(CC(C)C(=O)N[C@H](C)c2ccccc2)n1Cc1ccc(NC(=O)c2ccccc2C(=O)O)cc1 (single isomer, unassigned) [Example 238] = 110
• COCCc1nc(Cl)c(CO)n1Cc1ccc(NC(=O)c2ccccc2NS(=O)(=O)C(F)(F)F)cc1 = 4400
• CCCCc1nc(Cl)c(CCCC(=O)O)n1Cc1ccc(-c2ccccc2C(=O)O)cc1 = 270

====

target: AII receptor; assay: Angiotensin II receptor binding (displacement of 3H-AII); settings: read-out: Angiotensin II Receptor Binding IC50; Table 26; rat adrenal cortical microsomes, 2 nM 3H-AII, 1 hour, room temperature
pIC50: −log10 of the molar value.
The molecules listed here are annotated with their pIC50.
MEASURE NAME: pIC50

- CCCCc1nc(CO)c(Cl)n1Cc1ccc(-c2ccccc2-c2[nH]nnc2C(=O)OC)cc1 [Example 339]: 5.77
- CCCc1nc(C)c(CO)n1Cc1ccc(-c2ccccc2C(=O)O)cc1 [Example 321]: 5.74
- CCCCc1nc(C(F)(F)C(F)(F)F)c(C(=O)O)n1Cc1ccc(-c2ccccc2-c2nn[nH]n2)cc1 [Example 265B]: 5.85
- CCCc1nc(C(F)(F)C(F)(F)C(F)(F)F)c(CO)n1Cc1ccc(-c2ccccc2-c2nnn[nH]2)cc1 [Example 124K]: 7.89
- CCCc1nc(C(F)(F)C(F)(F)C(F)(F)F)c(CO)n1Cc1ccc(-c2ccccc2C(=O)O)cc1 [Example 124G]: 7.13

====

system: Renal Hypertensive Rats; assay: Antihypertensive effects in renal hypertensive rats; format: in vivo; conditions: Rattus norvegicus; Table 25; tested as sodium salt; oral, 100 mg/kg or less
# maps each entry to its minimal effective dose at 100 mg/kg
MEASURE NAME: minimal effective dose at 100 mg/kg

* CCCCOC(=O)NCc1c(Cl)nc(CCCC)n1Cc1ccc(-c2ccccc2C(=O)O)cc1 | < 100 mg/kg
* CCCCc1nc(Cl)c(Cc2nnn[nH]2)n1Cc1cccc(-c2nnn[nH]2)c1 | > 100 mg/kg
* CCCCc1nc(Cl)c(COC)n1Cc1ccc(-c2ccccc2Cc2nn[nH]n2)cc1 | > 100 mg/kg
* CCCCc1nc(Cl)c(COC)n1Cc1ccc(N(C)C(=O)c2c(Cl)ccc(Cl)c2C(=O)O)cc1 | > 100 mg/kg
* CCCCc1nc(CNC(=O)OCCC)c(Cl)n1Cc1ccc(-c2ccccc2C(=O)O)cc1 | < 100 mg/kg
* CCCCc1nc(Cl)c(COC)n1Cc1ccc(NC(=O)c2ccccc2C(=O)O)cc1 | > 100 mg/kg
* CCCCc1nc(Cl)c(COC)n1Cc1ccc(C(=O)Nc2ccccc2-c2nnn[nH]2)cc1 | > 100 mg/kg
* CCCCc1nc(Cl)c(CNC(=O)NC)n1Cc1ccc(-c2ccccc2C(=O)O)cc1 | > 100 mg/kg
* CCCCc1nc(Cl)c(CNC(=O)OC23CC4CC(CC(C4)C2)C3)n1Cc1ccc(-c2ccccc2C(=O)O)cc1 | < 100 mg/kg
* CCCCc1nc(Cl)c(CC(=O)OC)n1Cc1ccc(NC(=O)c2cc(I)ccc2NS(=O)(=O)C(F)(F)F)cc1 | < 100 mg/kg
* CCCc1nccn1Cc1ccc(NC(=O)c2ccccc2C(=O)O)cc1 | > 100 mg/kg
* CCCCc1nc(Cl)c(CC(=O)OC)n1Cc1ccc(NC(=O)c2c(F)c(F)c(F)c(F)c2C(=O)O)cc1 | > 100 mg/kg
* CCCCc1nc(Cl)c(CC(=O)OC)n1Cc1ccc(N(Cc2ccccc2)C(=O)c2ccccc2NS(=O)(=O)C(F)(F)F)cc1 | > 100 mg/kg
* CCCCc1nc(Cl)c(CNC(=O)OC)n1Cc1ccc(-c2ccccc2C(=O)O)cc1 | < 100 mg/kg
* CCCCc1nc(Cl)c(CNC(=O)NC(C)c2cccc3ccccc23)n1Cc1ccc(-c2ccccc2C(=O)O)cc1 (centres unmarked) | > 100 mg/kg
* CCCCc1nc(Cl)c(CNC(=O)OCCC)n1Cc1ccc(-c2ccccc2C(=O)O)cc1 | < 100 mg/kg
* CCCCc1nc(Cl)c(COC)n1Cc1ccc(-c2ccccc2-c2nnn[nH]2)cc1 | < 100 mg/kg
* CCCCc1nc(Cl)c(Cc2nnn[nH]2)n1Cc1ccc(C(=O)c2ccccc2C(=O)O)cc1 | > 100 mg/kg
* CCCCc1nc(Cl)c(Cn2cncn2)n1Cc1ccc(C(=O)c2ccccc2C(=O)O)cc1 | > 100 mg/kg
* CCCCc1nc(Cl)c(CNC(=O)Nc2cccc3ccccc23)n1Cc1ccc(-c2ccccc2C(=O)O)cc1 | > 100 mg/kg
* CCCCc1nc(Cl)c(COC)n1Cc1ccc(C(=O)Nc2ccccc2C(=O)O)cc1 | < 100 mg/kg
* CCCCc1nc(Cl)c(CNC(=O)OC(C)C)n1Cc1ccc(-c2ccccc2C(=O)O)cc1 | < 100 mg/kg
* CCCCc1nc(Cl)c(Cc2nnn[nH]2)n1Cc1ccc(-c2nnn[nH]2)cc1 | < 100 mg/kg
* CCCCc1nc(Cl)c(CNC(=O)OCC)n1Cc1ccc(-c2ccccc2C(=O)O)cc1 | < 100 mg/kg
* CCCCc1nc(Cl)c(CNS(C)(=O)=O)n1Cc1ccc(C(=O)c2ccccc2C(=O)O)cc1 | > 100 mg/kg
* CCCCc1nc(Cl)c(CC(=O)OC)n1Cc1ccc(NC(=O)c2ccccc2-c2ccccc2C(=O)O)cc1 | > 100 mg/kg

====

// values below are reported minimal effective dose at 100 mg/kg
system: Renal Hypertensive Rats; assay: Antihypertensive effects in renal hypertensive rats; format: in vivo; conditions: Rattus norvegicus; Table 25; oral, 100 mg/kg or less
MEASURE NAME: minimal effective dose at 100 mg/kg

* CC/C=C/c1nc(Cl)c(C=O)n1Cc1ccc(-c2ccccc2C(=O)O)cc1 | < 100 mg/kg
* CCCCc1nc(Cl)c(CO)n1Cc1ccc(-c2ccccc2C(=O)NOCc2ccccc2)cc1 | > 100 mg/kg
* CCCCc1nc(Cl)c(CO)n1Cc1ccc(-c2cccc(C(=O)O)c2)cc1 | < 100 mg/kg
* CCCCc1nc(Cl)c(C=O)n1Cc1ccc(-c2ccccc2-c2nnn[nH]2)cc1 | < 100 mg/kg
* CCCCc1nc([N+](=O)[O-])c(CO)n1Cc1ccc(-c2ccccc2C(=O)O)cc1 | > 100 mg/kg
* CCCCc1nc(Cl)c(C(=O)N(C)C)n1Cc1ccc(-c2ccccc2C(=O)O)cc1 | < 100 mg/kg
* CCCCc1nc(Cl)c(CC(=O)OC)n1Cc1ccc(NC(=O)c2ccccc2NS(C)(=O)=O)cc1 | > 100 mg/kg
* CCCCc1nc(Cl)c(C(C)C(=O)O)n1Cc1ccc(-c2ccccc2C(=O)O)cc1 (stereo not drawn) | < 100 mg/kg
* CCCCc1nc(CO)c(I)n1Cc1ccc(-c2ccccc2C(=O)O)cc1 | < 100 mg/kg
* CC/C=C/c1nc(Cl)c(CO)n1Cc1ccc(-c2ccccc2C(=O)O)cc1 | < 100 mg/kg
* CCCCc1nc(Cl)c(C=O)n1Cc1ccc(-c2ccccc2C(=O)O)cc1 | < 100 mg/kg
* CCCc1nc(Cl)c(CO)n1Cc1ccc(-c2ccccc2C(=O)O)cc1 | < 100 mg/kg
* CCCCc1nc(Cl)c(CO)n1Cc1ccc(-c2ccccc2-c2nnn[nH]2)cc1 | < 100 mg/kg
* CCCCc1nc(Cl)c(CC(=O)O)n1Cc1ccc(C(=O)O)cc1 | > 100 mg/kg
* CCCCc1nc(Cl)c(COC(C)=O)n1Cc1ccc(-c2ccccc2C(=O)O)cc1 | < 100 mg/kg
* CCCCc1nc(Cl)c(CO)n1Cc1ccc(-c2cccc(C(=O)OCOC(=O)C(C)(C)C)c2)cc1 | < 100 mg/kg
* CCCCc1nc(Cl)c(CCC(=O)O)n1Cc1ccc(-c2ccccc2C(=O)O)cc1 | < 100 mg/kg
* CCCCCCCc1nccn1Cc1ccc(NC(=O)c2ccccc2C(=O)O)cc1 | > 100 mg/kg
* CCC=Cc1nc(C(F)(F)F)c(CO)n1Cc1ccc(-c2ccccc2C(=O)O)cc1 | < 100 mg/kg
* CCCCc1nc(Cl)c(CCC(=O)N2CCOCC2)n1Cc1ccc(NC(=O)c2ccccc2C(=O)O)cc1 | > 100 mg/kg
* CCCCc1nc(Cl)c(CCC(=O)OC)n1Cc1ccc(NC(=O)c2ccccc2NS(=O)(=O)C(F)(F)F)cc1 | > 100 mg/kg
* CCCCc1nc(Cl)c(CCCC(=O)O)n1Cc1ccc(-c2ccccc2C(=O)O)cc1 | < 100 mg/kg
* CCCCc1nc(C(F)(F)F)c(C(=O)OCC)n1Cc1ccc(-c2ccccc2-c2nnn[nH]2)cc1 [Example 140I] | < 100 mg/kg
* CCCCc1nc(Cl)c(CC(C)C(=O)OC(C)C)n1Cc1ccc(NC(=O)c2ccccc2NS(=O)(=O)C(F)(F)F)cc1 (stereo not drawn) | > 100 mg/kg
